# test: Cell viability by CellTiter-Glo 2.0 (intracellular ATP) in HepG2.117 cells
# Assay type: cell-based
# condition.notes: human, CellTiter-Glo 2.0, 3 days incubation
For each record, write down the corresponding CC50 at 3 days.

So what's the measured CC50 at 3 days for this one? CNC(=O)c1ccc(-n2c(N(Cc3ccccc3)C3CCC3)nc3c(c2=O)C[C@@H](C)N(C(=O)c2ccc(Br)c(C(F)(F)F)c2)C3)cc1 > 0.5 µM

Record request: CC50 at 3 days value, item CNC(=O)c1ccc(-n2c(-n3cccn3)nc3c(c2=O)C[C@@H](C)N(C(=O)c2ccc(Br)c(C(F)(F)F)c2)C3)cc1 > 50 µM

Query: CC50 at 3 days; subject: CCN1CCC(c2nc3c(c(=O)n2-c2ccc(C(=O)NC)cc2)CC(C)N(C(=O)c2ccc(Br)c(C(F)(F)F)c2)C3)C1 (stereo not drawn) > 50 µM

State the recorded CC50 at 3 days for this entry: CNC(=O)c1ccc(-n2c(N(CC3CC3)c3ccccc3)nc3c(c2=O)C[C@@H](C)N(C(=O)c2ccc(Br)c(C(F)(F)F)c2)C3)cc1 10.8 µM

// CC50 at 3 days lookup, key: CNC(=O)c1ccc(-n2c(-n3cc(C4CC4)cn3)nc3c(c2=O)C[C@@H](C)N(C(=O)c2ccc(Br)c(C(F)(F)F)c2)C3)cc1 27.8 µM

Bench note: what CC50 at 3 days did COc1ccc(-n2c(-c3ccccc3)nc3c(c2=O)CCN(C(=O)c2ccc(Br)c(C(F)(F)F)c2)C3)cc1 show? > 0.5 µM

Origin of values: patent US11952374B2
